So I've got a bunch of compounds here, and I need their kon values.
tested_target: BaDHPS (Bacillus anthracis, UniProt Q81VW8)
Sequence (Q81VW8 1-280): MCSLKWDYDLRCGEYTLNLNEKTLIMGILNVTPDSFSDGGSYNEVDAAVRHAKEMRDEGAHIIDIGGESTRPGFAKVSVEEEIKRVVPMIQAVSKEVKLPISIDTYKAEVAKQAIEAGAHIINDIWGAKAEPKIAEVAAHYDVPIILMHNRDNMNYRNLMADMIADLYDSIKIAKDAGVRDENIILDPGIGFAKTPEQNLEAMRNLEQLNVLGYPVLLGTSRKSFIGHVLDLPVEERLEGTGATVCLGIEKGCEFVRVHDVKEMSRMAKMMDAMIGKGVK
protocol_details: biochemical
Format: binding
reported_conditions: read-out: SPR ka
# unit: M⁻¹ s⁻¹ | format: bare number

The compound identified as CC(C(=O)O)c1n[nH]c2nc(N)[nH]c(=O)c2c1=O (centres unmarked) registered its kon at 366000

// kon value for Nc1nc2[nH]nc(CCC(=O)O)c(=O)c2c(=O)[nH]1 : 442000

Data point: Cn1nc(CC(=O)O)c(=O)c2c(=O)[nH]c(N)nc21 ; kon = 342000

get_value(item= CC(CC(=O)O)c1n[nH]c2nc(N)[nH]c(=O)c2c1=O (centres unmarked) , readout=kon) returns 643000

The recorded kon for Nc1nc2[nH]nc(CC(=O)O)c(=O)c2c(=O)[nH]1 is 419000
